# Tested on: Proteus mirabilis
# test description: Antimicrobial activity against Proteus mirabilis ATCC 12453 after 18 hrs by broth microdilution method
# Format: functional
# condition parameters: ATCC 12453, 18 h
measured attribute: MIC (µM)

# query smiles, unit, MIC
measured = [
    ("O=C(O)c1cn(C2CC2)c2cc(N3CCN(Cn4nc(-c5ccc(O)cc5)n(-c5ccc(F)cc5)c4=S)CC3)c(F)cc2c1=O", "µM", 0.048),
    ("O=C(O)c1cn(C2CC2)c2cc(N3CCN(Cn4nc(-c5cccc(O)c5)n(-c5ccc(F)cc5)c4=S)CC3)c(F)cc2c1=O", "µM", 0.024),
    ("O=C(O)c1cn(C2CC2)c2cc(N3CCN(Cn4nc(-c5ccccc5O)n(-c5ccccc5)c4=S)CC3)c(F)cc2c1=O", "µM", 0.024),
]

A: O=C(O)c1cn(C2CC2)c2cc(N3CCN(Cn4nc(-c5cccc(O)c5)n(Cc5ccccc5)c4=S)CC3)c(F)cc2c1=O
B: O=C(O)c1cn(C2CC2)c2cc(N3CCN(Cn4nc(-c5cccc(O)c5)n(-c5ccccc5)c4=S)CC3)c(F)cc2c1=O
C: O=C(O)c1cn(C2CC2)c2cc(N3CCN(Cn4nc(-c5ccc(O)cc5)n(-c5ccccc5)c4=S)CC3)c(F)cc2c1=O
D: COc1ccc(Cn2c(-c3ccc(O)cc3)nn(CN3CCN(c4cc5c(cc4F)c(=O)c(C(=O)O)cn5C4CC4)CC3)c2=S)cc1
Would you mind ranking these molecules by ascending MIC? Reply format: the labels, ordered as requested. A, B, C, D
(A: 0.012 µM, B: 0.024 µM, C: 0.049 µM, D: 0.091 µM)
